Test system: LNCaP cells
value.kind: IC50 (µM)

CC1=CCCC(C)(C)C1/C=C/C(=O)/C=C/c1ccccc1C(F)(F)F (racemic) : 22.6
CC1=C(/C=C/C(=O)/C=C/c2ccccc2F)C(C)(C)CCC1 : 10.7
CC1=C(/C=C/C(=O)/C=C/c2c(F)cccc2C(F)(F)F)C(C)(C)CCC1O (racemic) : 4.9
CC1=C(/C=C/C(=O)/C=C/c2ccc(F)cc2)C(C)(C)CCC1O (racemic) : 3.9
CC1=C(/C=C/C(=O)/C=C/c2ccc([N+](=O)[O-])cc2)C(C)(C)CCC1O (racemic) : 4.2
CC1=C(/C=C/C(=O)/C=C/c2cc([N+](=O)[O-])ccc2Cl)C(C)(C)CCC1 : 4.2
CC1=C(/C=C/C(=O)/C=C/c2ccc(F)c(C(F)(F)F)c2)C(C)(C)CCC1O (racemic) : 2.2
CC1=C(/C=C/C(=O)/C=C/c2ccccc2)C(C)(C)CCC1O (racemic) : 5.8
CC1=C(/C=C/C(=O)/C=C/c2cc(F)cc(C(F)(F)F)c2)C(C)(C)CCC1O (racemic) : 1.1
CC1=C(/C=C/C(=O)/C=C/c2ccccc2C(F)(F)F)C(C)(C)CCC1O (racemic) : 2.9

a. COc1cccc(/C=C/C(=O)/C=C/C2=C(C)C(O)CCC2(C)C)c1 (racemic)
b. CC1=C(/C=C/C(=O)/C=C/c2ccc(C(F)(F)F)cc2F)C(C)(C)CCC1O (racemic)
q: Please compare: a and b . Report which one has the smaller IC50 value. // caller expects the label of the chosen entry
a: b

###

Tested on: MCF-7 cells
Assay: Growth inhibition, MCF-7 breast cancer cells
Format: cell-based
Conditions: Table 10; read-out: Cytotoxicity, IC50 (μM) MCF-7
value.kind: IC50 (µM)
Write the number in µM without appending the unit.

get_value(item= CC1=C(/C=C/C(=O)/C=C/c2cccc(C(F)(F)F)c2)C(C)(C)CCC1O (racemic) , readout=IC50) returns 5.2

###

Tested on: 22Rv1 cells
Test: MTT cell growth inhibition, 22Rv1
Settings: read-out: Cytotoxicity in prostate cancer cell lines IC50 (μM), 22Rv1; Part D table; MTT, 72 hours
Reported IC50 values for the following molecules.

CC(O)(CS(=O)(=O)c1ccc(F)cc1)C(=O)Nc1ccc(C#N)c(C(F)(F)F)c1 (centres unmarked) [Bic, bicalutamide, reference compound] : > 50 µM

Now examine the next entry.
Per the records, this molecule ( CC(C)(O)C(=O)Nc1ccc([N+](=O)[O-])c(C(F)(F)F)c1 [OHF, hydroxyflutamide, reference compound] ) has IC50 equal to > 50 µM

###

// values below are IC50; system is PC-3 cells
value.kind: IC50 (µM)

CC1=CCCC(C)(C)C1/C=C/C(=O)/C=C/c1cccc([N+](=O)[O-])c1 (racemic) [Compound B21] : 2.9
CC1=C(/C=C/C(=O)/C=C/c2ccccc2)C(C)(C)CCC1O (racemic) [Compound B23] : 15.5
CC1=C(/C=C/C(=O)/C=C/c2ccccc2F)C(C)(C)CCC1O (racemic) [Compound B29] : 10.4
CC1=C(/C=C/C(=O)/C=C/c2cccc(C)c2)C(C)(C)CCC1O (racemic) [Compound B38] : 6.2
CC1=C(/C=C/C(=O)/C=C/c2cccc([N+](=O)[O-])c2)C(C)(C)CCC1 [Compound B11] : 10

I. CC1=C(/C=C/C(=O)/C=C/c2cccc(C(F)(F)F)c2F)C(C)(C)CCC1O (racemic) [Compound B34]
II. CCOC(OCC)c1cccc(/C=C/C(=O)/C=C/C2=C(C)C(O)CCC2(C)C)c1 (stereo not shown) [Compound B43]
III. CC1=C(/C=C/C(=O)/C=C/c2cccc(C(F)(F)F)c2)C(C)(C)CCC1 [Compound B5]
IV. CC1=C(/C=C/C(=O)/C=C/c2cccc(C)c2)C(C)(C)CCC1 [Compound B14]
q: Order field: IC50 | Direction: descending (largest first) Respond with the label ranking, as requested.
a: IV, III, II, I

I. CC1=C(/C=C/C(=O)/C=C/c2ccccc2C(F)(F)F)C(C)(C)CCC1O (racemic) [Compound B24]
II. CC1=C(/C=C/C(=O)/C=C/c2ccc(F)c(C(F)(F)F)c2)C(C)(C)CCC1O (racemic) [Compound B32]
III. CC1=C(/C=C/C(=O)/C=C/c2ccc(-c3ccccc3)cc2)C(C)(C)CCC1 [Compound B15]
q: rank_up(items): orders items by reported IC50 in ascending numerical order. The reply should contain the labels ordered as requested.
a: I, II, III

I. CC1=C(/C=C/C(=O)/C=C/c2cccc(C(F)(F)F)c2)C(C)(C)CCC1O (racemic) [Compound B25]
II. COc1cccc(/C=C/C(=O)/C=C/C2=C(C)C(O)CCC2(C)C)c1 (racemic) [Compound B42]
q: Compare IC50: is it lower for I or for II ? Lab note: record the label of whichever item you select.
a: I

###

Record: pIC50 reported on PC-3 cells.
pIC50: −log10 of the molar value.
value.kind: pIC50

Example entries and their recorded answers appear below.
COc1cc(/C=C/C(=O)/C=C/C2=C(C)CCCC2(C)C)ccc1O : 4.67
CC1=C(/C=C/C(=O)/C=C/c2c(F)cccc2C(F)(F)F)C(C)(C)CCC1O (racemic) : 5.06
CC1=C(/C=C/C(=O)/C=C/c2ccc(C(F)(F)F)cc2F)C(C)(C)CCC1O (racemic) : 5.34
CC1=C(/C=C/C(=O)/C=C/c2cc(C(F)(F)F)cc(C(F)(F)F)c2)C(C)(C)CCC1O (racemic) : 5.15
CC1=C(/C=C/C(=O)/C=C/c2cccc(C#N)c2)C(C)(C)CCC1O (racemic) : 5.14

a. CC1=C(/C=C/C(=O)/C=C/c2cc([N+](=O)[O-])ccc2Cl)C(C)(C)CCC1
b. COc1ccc(/C=C/C(=O)/C=C/C2=C(C)CCCC2(C)C)cc1O
c. CC1=C(/C=C/C(=O)/C=C/c2cccc([N+](=O)[O-])c2)C(C)(C)CCC1O (racemic)
q: Order field: pIC50 | Direction: descending (largest first) # respond with the labels, arranged in the requested order
a: c, a, b

1. CC1=C(/C=C/C(=O)/C=C/c2cccc(F)c2)C(C)(C)CCC1
2. CC1=C(/C=C/C(=O)/C=C/c2cc(C(F)(F)F)ccc2F)C(C)(C)CCC1O (racemic)
q: Param pair: 1 , 2 . Output: the one whose pIC50 is numerically greater. // respond with label for picked entry
a: 2
(2: 5.44, 1: 4.73)

###

Test system: C4-2B cells
Assay: MTT cell growth inhibition, C4-2B;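 also: cells treated with a dilution series for 72 h, then MTT added and absorbance read at 600 nm, IC50 fitted from dose-response curves by nonlinear regression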
Details: read-out: Cellular IC50 (μM) C4-2B, Table 9
value.kind: IC50 (µM)
Give just the number in µM; leave the unit off.

Lab note: compound CC1(C)CCC(O)C=C1/C=C/C(=O)/C=C/c1c[nH]c2ccc(Br)cc12 (stereo not drawn) tested on C4-2B cells; recorded IC50 was 4.8

Measured on C4-2B cells, CC1(C)CCC(O)C=C1/C=C/C(=O)/C=C/c1ccc2ccccc2n1 (stereo not drawn) has a documented IC50 of 1.5

Tested system C4-2B cells; IC50 recorded for CC1(C)CCC(O)C=C1/C=C/C(=O)/C=C/c1c[nH]c2ccccc12 (stereo not drawn) was 2.3

IC50 on C4-2B cells for Cc1ccc2[nH]cc(/C=C/C(=O)/C=C/C3=CC(O)CCC3(C)C)c2c1 (stereo not drawn) is 6.8

###

Test system: LNCaP cells
Assay: MTT cell growth inhibition, LNCaP;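 also: MTT formazan absorbance at 600 nm read after 72 h of compound exposure, IC50 fitted by nonlinear regression of dose-response curves, samples run in triplicate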
Conditions: read-out: Cytotoxicity, IC50 (μM) LNCaP, Table 5
value.kind: IC50 (µM)
Please give a number only; it is taken to be in µM.

Reported LNCaP cells IC50 for item CC(=O)/C=C/C1=C(C)CCCC1(C)C [β-Ionone, reference compound] was 151

###

Test system: PC-3 cells
Test: MTT cell growth inhibition, PC-3
Settings: read-out: Cytotoxicity in prostate cancer cell lines IC50 (μM), PC-3, Part D table, 72 hours, I.A. = Inactive
value.kind: IC50 (µM)
Number in µM, nothing else.

Record CC1(C)CCC(O)C=C1/C=C/C(=O)/C=C/c1csc2ccccc12 (stereo not shown) ; system PC-3 cells; IC50 = 2

###

Tested on: MDA-MB-231 cells
Test: Growth inhibition, MDA-MB-231 breast cancer cells
Format: cell-based
Conditions: Homo sapiens, MDA-MB-231; Table 11; read-out: Cytotoxicity, IC50 (μM) MDA-MB231
IC50 values, listed per item
Entry rule: numbers only, all in µM.

CC(=O)N1N=C(/C=C/C2C(C)=CCCC2(C)C)CC1c1ccccc1C(F)(F)F (stereo not drawn) [Compound C6] : 15.4

We now examine a further compound.
Given item CC(=O)N1N=C(/C=C/C2C(C)=CCCC2(C)C)CC1c1ccc(C(F)(F)F)cc1 (stereo not drawn) [Compound C7] , the value recorded as its IC50 is 20

The measurements presented in this section are drawn from patent US8470889B2.
